# Subject of test: T1, DLK1-hFc fusion protein (extracellular region of human DLK1 fused with human Fc) (human, UniProt P80370 24-303)
# T1 construct: The ELISA text says 'DLK1 protein'/'antigen DLK1' coated at 100 ng/well; also called hDLK1; DLK1 antigen
# T1 sequence: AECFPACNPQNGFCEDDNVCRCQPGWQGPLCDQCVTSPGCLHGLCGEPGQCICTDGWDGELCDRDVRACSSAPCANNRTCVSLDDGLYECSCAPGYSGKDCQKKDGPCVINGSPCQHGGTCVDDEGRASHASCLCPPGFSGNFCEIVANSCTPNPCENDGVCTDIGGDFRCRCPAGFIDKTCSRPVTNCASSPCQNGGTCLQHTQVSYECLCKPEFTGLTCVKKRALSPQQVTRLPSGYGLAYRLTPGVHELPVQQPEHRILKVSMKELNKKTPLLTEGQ
# Assay explanation: ELISA, coated DLK1 antigen, IgG titrated 100 nM to 0.046 nM, GraphPad Prism fit
Measure name: pKd
Just so you know, pKd here is -log10 of the concentration in molar units; reply with that number alone.

Could you please provide reported pKd for human anti-DLK1 monoclonal antibody 17B11 (antibody, V domains shown, Converted from scFv to IgG (pNATVH/pNATVL, HEK293E)) VH: QVQLVESGGTLVQPGGSLRLSCAASGFTFSSHAMSWVRQTPGKGLEWVSSITKSGSGTYSADSVKGRFTISRDNSKNTLYLQMNSLRAEDTAVYYCTREGLGYYYGMDVWGQGTTVTVSS VL: QLVLTQPPSVSGAPGQRVIISCTGSSSNIGAGYDVHWYQQLPGTAPRLLIYGSTNRPSGVPDRFSGSKSGTSASLAITGLQAEDEADYYCQSYDNSLSAHYVFGTGTKVTVL ? Thanks! 8.14
